- Target Or Test System: mouse TMEM16A mutant T518A (Mus musculus, UniProt Q8BHY3, T518A)
- Construct: expressed in transfected cells; host or cells: HEK293T
- Sequence (Q8BHY3 whole entry T518A): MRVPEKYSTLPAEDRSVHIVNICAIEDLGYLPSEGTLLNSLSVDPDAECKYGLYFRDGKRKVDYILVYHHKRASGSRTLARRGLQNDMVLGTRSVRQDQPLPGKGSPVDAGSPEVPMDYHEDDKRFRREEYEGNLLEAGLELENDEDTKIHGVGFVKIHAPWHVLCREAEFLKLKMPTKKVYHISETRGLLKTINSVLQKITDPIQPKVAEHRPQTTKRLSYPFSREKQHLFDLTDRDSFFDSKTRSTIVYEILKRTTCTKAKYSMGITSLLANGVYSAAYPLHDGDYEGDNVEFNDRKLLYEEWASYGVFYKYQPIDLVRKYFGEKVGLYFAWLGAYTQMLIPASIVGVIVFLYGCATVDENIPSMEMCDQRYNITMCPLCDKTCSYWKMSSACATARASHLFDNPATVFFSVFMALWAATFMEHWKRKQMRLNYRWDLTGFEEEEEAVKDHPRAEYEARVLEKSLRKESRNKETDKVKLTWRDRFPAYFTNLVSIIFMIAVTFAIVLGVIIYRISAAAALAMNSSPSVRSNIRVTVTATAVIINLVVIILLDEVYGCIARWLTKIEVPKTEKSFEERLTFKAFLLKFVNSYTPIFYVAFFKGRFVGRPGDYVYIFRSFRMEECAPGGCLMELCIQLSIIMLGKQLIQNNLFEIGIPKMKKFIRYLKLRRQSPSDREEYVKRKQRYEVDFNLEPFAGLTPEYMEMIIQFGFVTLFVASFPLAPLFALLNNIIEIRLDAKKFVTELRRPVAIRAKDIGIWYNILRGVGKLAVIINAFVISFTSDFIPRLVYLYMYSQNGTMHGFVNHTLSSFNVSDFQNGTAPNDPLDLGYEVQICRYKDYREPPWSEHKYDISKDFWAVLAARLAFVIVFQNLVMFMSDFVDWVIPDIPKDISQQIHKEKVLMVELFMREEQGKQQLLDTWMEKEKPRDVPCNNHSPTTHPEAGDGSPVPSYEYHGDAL
- Protocol Details: Inside-out patch recording of 1PBC block, mutant T518A
- Type: cell-based
- Assay Setup: 120 mV; 2 µM Ca2+
pIC50: −log10 of the molar value.

[
  {
    "Entry Smiles": "N#Cc1c(C(F)(F)F)cc(O)n2c1nc1ccccc12",
    "pIC50": 5.57
  }
]

###

- Target Or Test System: mouse TMEM16A mutant K603Q (Mus musculus, UniProt Q8BHY3, K603Q)
- Construct: expressed in transfected cells; host or cells: HEK293T
- Sequence (Q8BHY3 whole entry K603Q): as the sequence (Q8BHY3 whole entry T518A) above, with A518T, K603Q counted along it
- Protocol Details: Inside-out patch recording of 1PBC block, mutant K603Q
- Assay type: cell-based
- Assay Setup: K603Q; V -120 mV
pIC50: −log10 of the molar value.

[
  {
    "Compound": "N#Cc1c(C(F)(F)F)cc(O)n2c1nc1ccccc12 [1PBC]",
    "Target Or Test System": "mouse TMEM16A mutant K603Q (Mus musculus, UniProt Q8BHY3, K603Q)",
    "pIC50": 3.69
  }
]
